Data provenance is patent EP1932831A1.

Molecular target: human FSH receptor (Homo sapiens, UniProt P23945)
Sequence (P23945 18-695): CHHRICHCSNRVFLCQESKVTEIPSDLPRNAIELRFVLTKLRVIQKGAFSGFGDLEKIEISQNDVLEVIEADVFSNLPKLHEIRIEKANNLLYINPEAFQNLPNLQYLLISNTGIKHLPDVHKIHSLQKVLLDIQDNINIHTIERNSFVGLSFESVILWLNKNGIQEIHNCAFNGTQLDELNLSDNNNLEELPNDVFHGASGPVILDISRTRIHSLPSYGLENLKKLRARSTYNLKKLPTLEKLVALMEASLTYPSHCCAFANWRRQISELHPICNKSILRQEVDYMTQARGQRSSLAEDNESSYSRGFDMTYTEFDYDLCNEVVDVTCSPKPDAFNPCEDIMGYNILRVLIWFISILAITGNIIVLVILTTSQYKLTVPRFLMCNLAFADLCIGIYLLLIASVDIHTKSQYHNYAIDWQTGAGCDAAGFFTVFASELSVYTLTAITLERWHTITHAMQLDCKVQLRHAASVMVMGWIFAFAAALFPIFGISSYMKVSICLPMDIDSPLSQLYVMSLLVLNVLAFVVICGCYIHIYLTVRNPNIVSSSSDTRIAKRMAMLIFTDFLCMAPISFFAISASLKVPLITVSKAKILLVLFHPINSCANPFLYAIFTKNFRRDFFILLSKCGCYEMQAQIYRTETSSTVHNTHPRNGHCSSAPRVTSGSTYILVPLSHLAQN
Test: HTRF assay for measuring cAMP in cells (FSH antagonism)
Conditions: FSH-antagonistic effect; hFSHR clone 16 cells (CHO cells stably transfected with the human FSH receptor); in the presence of 1e-9 mol/l hFSH; 37°C for 2h
reported.metric: pIC50
pIC50 (log units): -log10 of the concentration in mol/L.

Field pIC50 (system: human FSH receptor (Homo sapiens, UniProt P23945)) for entry CCCOc1ccc(C#Cc2ccccc2OC)cc1C(=O)N[C@@H](CO)Cc1c[nH]c2ccccc12 [Example 2] = 7.15

// returns pIC50 for COc1ccccc1C#Cc1ccc(OC(C)C)c(C(=O)NC(CO)Cc2c[nH]c3ccc(F)cc23)c1 (centres unmarked) [Example 22] with human FSH receptor (Homo sapiens, UniProt P23945); value = 6.82

Form field, pIC50 with human FSH receptor (Homo sapiens, UniProt P23945), item COc1ccccc1C#Cc1ccc(OC(C)C)c(C(=O)N[C@H](Cc2c[nH]c3ccccc23)C(C)(C)O)c1 [Example 20] : 6.15

# pIC50 measured on human FSH receptor (Homo sapiens, UniProt P23945) for item CCCOc1ccc(C#Cc2ccccc2)cc1C(=O)N[C@@H](CO)Cc1c[nH]c2ccccc12 [Example 1] = 6.60

Reading of pIC50 for COc1ccccc1C#Cc1cc(C(=O)N[C@@H](CO)Cc2c[nH]c3ccccc23)c2ccccc2c1 [Example 6] with human FSH receptor (Homo sapiens, UniProt P23945): 7.00
